B1: wild-type N2 VHH antibody [camelid] / TAMRA-labeled α-synuclein peptide [modified: tetramethylrhodamine (TAMRA) fluorophore, position not stated; tetramethylrhodamine (TAMRA) fluorophore, position not stated] [not stated] (parent)
chain 1: GQLVESGGGSVQAGGSLRLSCAASGIDSSSYCMGWFRQRPGKEREGVARINGLGGVKTAYADSVKDRFTISRDNAENTVYLQMNSLKPEDTAIYYCAAKFSPGYCGGSWSNFGYWGQGTQVTVSSH
chain 2: GYQDYEPEA

Variants of: B1
experiment.description: fluorescence polarization
run.parameters: with TAMRA-labeled α-synuclein peptide [modified: tetramethylrhodamine (TAMRA) fluorophore, 400 nM VHH, 2 nM TAMRA-labeled α-synuclein peptide, parent: 1, read off a plot
property.label: ratio to parent
Output: the number by itself.

Known results for variants:
Query string: Any idea what ratio to parent was measured for chain 1 GQLVESGGGSVQAGGSLRLSCAASGIDSSSYCMGWFRQRPGKEREGVARINGLGGVKTAYADSVKDRFTISRDNAENTVYLQMNSLKPEDTAIYYCAAKFSPGACGGSWSNFGYWGQGTQVTVSSH [chain 1 Y104A] ?
Result string: 0.07

Query string: // query ratio to parent value for entry chain 1 GQLVESGGGSVQAGGSLRLSCAASGIDSSSYCMGWFRQRPGKEREGVARINGLGGVATAYADSVKDRFTISRDNAENTVYLQMNSLKPEDTAIYYCAAKFSPGYCGGSWSNFGYWGQGTQVTVSSH [chain 1 K57A]
Result string: 0.1

New cases:
Query string: GET /values?readout=ratio to parent&item= chain 1 GQLVESGGGSVQAGGSLRLSCAASGIDSSSYCMGWFRQRPGKEREGVARANGLGGVKTAYADSVKDRFTISRDNAENTVYLQMNSLKPEDTAIYYCAAKFSPGYCGGSWSNFGYWGQGTQVTVSSH [chain 1 I50A]
Result string: 0.41

Query string: Record request: ratio to parent value, item chain 1 GQLVESGGGSVQAGGSLRLSCAASGIDSSSYCMGWFRQRPGKEREGVARIAGLGGVKTAYADSVKDRFTISRDNAENTVYLQMNSLKPEDTAIYYCAAKFSPGYCGGSWSNFGYWGQGTQVTVSSH [chain 1 N51A]
Result string: 0.015

Query string: For chain 1 GQLVESGGGSVQAGGSLRLSCAASGIDSSSYCMGWFRQRPGKEREGVARINGLGGVKTAYADSVKDRFTISRDNAENTVYLQMNSLKPEDTAIYYCAAKFSPGYCGGSASNFGYWGQGTQVTVSSH [chain 1 W109A] , what is its reported ratio to parent?
Result string: 0.075

Query string: Requested field: ratio to parent. Item: chain 1 GQLVESGGGSVQAGGSLRLSCAASGIDSSSYCMGWFRQRPGKEREGVARINGLGAVKTAYADSVKDRFTISRDNAENTVYLQMNSLKPEDTAIYYCAAKFSPGYCGGSWSNFGYWGQGTQVTVSSH [chain 1 G55A]
Result string: 0.015

Query string: Report ratio to parent for chain 1 GQLVESGGGSVQAGGSLRLSCAASGIDSSSYCMGWFRQRPGKEREGVARINALGGVKTAYADSVKDRFTISRDNAENTVYLQMNSLKPEDTAIYYCAAKFSPGYCGGSWSNFGYWGQGTQVTVSSH [chain 1 G52A] please.
Result string: -0.01
